We begin with a simple list: items and their reported z-score.
Assay: FRG1 promoter luciferase signal modulators, primary screen, FRG1 inhibition for FSHD, cell-based, C2C12 myotubes, firefly/Renilla luciferase, luminescence (AID 1084)
Settings: higher = more signal, called active from +8 up or from −8 down

| compound | z-score |
| --- | --- |
| O=C1O[C@@H](c2ccccc2)[C@@H](c2ccccc2)N2[C@@H](c3ccccc3OCCO)[C@]3(C(=O)Nc4ccc(C#CC5=CCCCC5)cc43)[C@@H](C(=O)O)[C@H]12 | -1.6 |
| C#C[C@H](O[Si](C#Cc1ccccc1)(C(C)C)C(C)C)c1ccccc1 | 1.15 |
| CO[C@@H]1COC(=O)[C@H](C)NC(=O)CC=C[C@@H](C)[C@H](NS(=O)(=O)c2ccc(C)cc2)COC(=O)CC=C[C@@H]1C | -0.364 |
| CC(C)CNC(=O)[C@@]1(C)c2ccccc2C(=O)N(Cc2ccc(OC(F)(F)F)cc2)[C@H]1c1ccc(CO)cc1 | -3.49 |
| COCCOC(=O)N1C(=O)[C@@]2(c3cc(C#CC4=CCCCC4)ccc31)[C@H](c1ccc(O)cc1)N1[C@H](c3ccccc3)[C@H](c3ccccc3)OC(=O)[C@H]1[C@@H]2C(=O)N1CCCCCCC1 | 0.0812 |
| CCCCCCc1nc(-c2cc(C)c(OC)c(C)c2)cc2c1[Si](C(C)C)(C(C)C)O[C@H]2c1ccccc1 | 0.119 |
| CC[C@H]1C2=C3C(CC[C@H]4C(OC)OC[C@](C)([C@@H]34)N(C(=O)OC(C)(C)C)C2)C(CO)C1CO (some centres not stated) | -0.342 |

* * *

Assay: PSAC antagonists in infected red cells, primary screen, cell-based, P. falciparum Indochina, OD700, 1 h (AID 1154)
Conditions: P. falciparum Indochina infected RBC osmotic lysis, called active from +8 up or from −8 down
Calls of active or inactive are those of the source.
Outcomes: t (active), f (inactive)

| compound | qualitative label |
| --- | --- |
| CO[C@H]1COC(=O)[C@H](C)COC(=O)[C@H](Cc2ccccc2)NC(=O)CC=C[C@H]1C | f |
| COC(=O)Cn1c(C(=O)N2CCCC2)cc2c1C[C@H]1CN(C(=O)c3ccccc3)[C@@](Cc3ccc(OC)cc3)(C(=O)OC)[C@@H]21 | t |
| COc1ccc(C(O)C2C=CC3C(=O)N(C)C(=O)C3N2N2CCCCC2)cc1OCc1ccccc1 (stereo not given) | f |
| C=C(C)[C@@H]1CC=C(C(O)C2C=CC3C(=O)NC(=O)C3N2Nc2ccccn2)CC1 (stereo not given in full) | f |
| CN(C)c1ccc(C(O)C2C=CC3C(=O)NC(=O)C3N2Nc2ccc(Cl)cc2Cl)cc1 (stereo not given) | f |
| CO[C@H]1O[C@H](CO)[C@@H](OC(=O)Nc2ccccc2)[C@H](OC(=O)Nc2ccc3c(c2)OCO3)[C@@H]1OC(=O)Nc1ccc2c(c1)OCO2 | t |
| O=C1OCC=C[C@H]2OC34C=CCN(Cc5ccccc5)C(=O)[C@H]3N(CCO)C(=O)[C@@H]4[C@@H]12 (stereo not given in full) | f |
| CCCC=C(CCC)[C@@H](NS(=O)(=O)c1ccc(-c2ccccc2)cc1)c1ccc(C(=O)OC)cc1 | f |
| Cc1ccccc1C(O)C1C=CC2C(=O)N(c3ccccc3)C(=O)C2N1Nc1ccc(C#N)cc1 (stereo not given) | t |
| CCN1C(C)=C(C(=O)OC)[C@@H](c2ccccc2)N2C(=O)[C@@]3(C(=O)OC)O[C@@]12[C@@H]1C(=O)CCC[C@@H]13 | f |
| CCCCCCc1nc(-c2cc(C)c(OC)c(C)c2)cc2c1[Si](C(C)C)(C(C)C)O[C@H]2c1ccccc1 | f |
| C[C@]1(C(=O)NCc2ccccc2)c2ccccc2C(=O)N(Cc2cc(C(F)(F)F)cc(C(F)(F)F)c2)[C@H]1c1ccc(CO)cc1 | f |
| C=CCC(OC(C)=O)[C@@H]1[C@@H](N(Cc2ccc(-c3ccccc3)cc2)C(=O)c2ccc(C)cc2)c2cc(OCCCO)ccc2N1C(=O)c1ccc(-c2ccccc2)cc1 (stereo not given in full) | f |
| O=C1O[C@@H](c2ccccc2)[C@@H](c2ccccc2)N2[C@@H](c3ccc(OCCO)cc3)[C@]3(C(=O)Nc4ccc(C#CCCO)cc43)[C@@H](C(=O)N3CCN(c4ncccn4)CC3)[C@H]12 | f |
| O=C1C2C=CC(C(O)c3ccccc3)N(n3cnnc3)C2C(=O)N1Cc1ccccc1 (stereo not given) | f |
